test: Cytotoxicity against multidrug resistant P-gp expressing human KBV20C cells assessed as cell viability at 10 uM after 48 hrs by MTS assay; format: functional; conditions: read-out: Activity
measure: viability at 10 µM (%)
Unit % implied. Number only.

Find the measured viability at 10 µM of `CCOC(=O)C(=O)Nc1cccc(C(=O)/C=C/c2ccc(O)c(OC)c2)c1` and report it. 103

Find the measured viability at 10 µM of `COc1cc(/C=C/C(=O)c2cccc(NC(=O)c3ccccc3)c2)ccc1O` and report it. 85.5

Find the measured viability at 10 µM of `COc1cc(/C=C/C(=O)c2cccc(NC(=O)c3cc(Cl)cc(Cl)c3)c2)ccc1O` and report it. 70.3

Find the measured viability at 10 µM of `COc1cc(/C=C/C(=O)c2cccc(NC(=O)c3ccc(Cl)cc3Cl)c2)ccc1O` and report it. 94.6

Find the measured viability at 10 µM of `COc1cc(/C=C/C(=O)c2cccc(NC(=O)c3ccc(Cl)cc3)c2)ccc1O` and report it. 96.6

Find the measured viability at 10 µM of `COc1cc(/C=C/C(=O)c2cccc(NC(C)=O)c2)ccc1O` and report it. 92.4

Find the measured viability at 10 µM of `CCCC(=O)Nc1cccc(C(=O)/C=C/c2ccc(O)c(OC)c2)c1` and report it. 80.8

Find the measured viability at 10 µM of `COc1cc(/C=C/C(=O)c2cccc(NC(=O)C(C)C)c2)ccc1O` and report it. 67.7

Find the measured viability at 10 µM of `COc1cc(/C=C/C(=O)c2cccc(NC(=O)c3ccco3)c2)ccc1O` and report it. 77.6

Find the measured viability at 10 µM of `COc1cc(/C=C/C(=O)c2cccc(NC(=O)c3c(Cl)cccc3Cl)c2)ccc1O` and report it. 75.3
